assay details: NCI Yeast Anticancer Drug Screen. Data for the sgs1 mgt1 strain (AID 161);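 note: 0% = growth of cultures given vehicle only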
measurement conditions: S. cerevisiae sgs1 mgt1 strain, at 50.0 µM
About 79,000 compounds went through this panel and 15% of them were active in at least one assay; those are over-represented in the sample as a whole. Calls of active or inactive are those of the source. Cut-off read from the data, not from the text of the source: active = growth inhibition above about 70%; inactive = the rest.
Write down the outcome that applies. Available outcomes: active, inactive

Here's what some known entries look like.
>  <molecule>
COc1ccc([N+](=O)[O-])c2c1CONC2(C)C(=O)O (centres undefined)

>  <category>
inactive

$$$$
>  <molecule>
COc1ccccc1-c1nc2ccccc2c(=O)[nH]1

>  <category>
inactive

$$$$
>  <molecule>
O=NN(CCF)C(=O)N[C@H]1CCCC[C@H]1O

>  <category>
inactive

$$$$
>  <molecule>
C/C=C/C=N/SC(c1ccccc1)(c1ccccc1)c1ccccc1

>  <category>
inactive

$$$$
>  <molecule>
c1ccc2c(c1)NC(N1CCCCC1)=Nc1ncncc1-2

>  <category>
inactive

$$$$
>  <molecule>
CCOC(=O)C(C)(C)Oc1ccc2c(-c3ccc(Cl)cc3)cc(=O)oc2c1

>  <category>
inactive

$$$$
>  <molecule>
NC(=O)CCC1CCCCN1 (centres undefined)

>  <category>
inactive

$$$$
>  <molecule>
CCOC(=O)Cc1cc(C)c2ccccc2n1

>  <category>
inactive

$$$$

Answer briefly: the call reported for `CC(=O)CCC(=O)c1ccoc1` in this assay. inactive

###

assay details: NCI Yeast Anticancer Drug Screen. Data for the cln2 rad14 strain (AID 165);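 note: 0% = growth equal to vehicle treated cultures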
measurement conditions: S. cerevisiae cln2 rad14 strain, at 50.0 µM, hits give high values
About 79,000 compounds went through this panel and 15% of them were active in at least one assay; those are over-represented in the sample as a whole. Where a SMILES comes first, the peptide text is derived from it. [ ]: non-standard residue; d: D form. The star is where a group is joined. ξ: configuration not given here. Cbz = O=C(OCc1ccccc1)*; ξK = NCCCCC(N)C(=O)O
Answer each item with its documented growth inhibition.
Numbers only, in %.

Hi! Can you tell me growth inhibition for each of these molecules?
1. CN=NNc1ccc(C#N)cc1
2. NC(=O)C1CCCC1

-14.1
14.1

// each listed molecule needs a value for growth inhibition
1. CN(C)C(=O)Nc1cccc(OC(=O)NC2CCCCCCC2)c1
2. O=C(COc1ccccc1)OC1CCCCC1C1CCCCC1 (centres undefined)

3.95
21.5

For each listed entry, give its growth inhibition.
1. Cc1c(C)n2c(=O)n(-c3ccccc3)c(=O)n2c1=O
2. CC1=Nc2ccccc2C1(C)C
3. COC(=O)CC1C=CC(OC)[C@@]2(C)C(=O)C(OC)=CC(=O)[C@@H]12 (some centres undefined)
4. NCCCCC(NC(=O)OCc1ccccc1)C(=O)NCC(N)=O (centres undefined) (Cbz-[ξK]-Gly-NH2)
5. COc1cc2cc3c(c(O)c2c(O)c1/C=C/C(C)C)C(=O)CC(C)(OC(C)=O)C3 (centres undefined)

1. -27.2
2. 21.2
3. 19.6
4. 4.05
5. 30.4

###

assay details: NCI Yeast Anticancer Drug Screen. Data for the mlh1 rad18 strain (AID 175)
measurement conditions: S. cerevisiae mlh1 rad18 strain growth inhibition; at 50.0 µM; hits give high values
The panel holds about 79,000 compounds, 15% with a hit somewhere; the sample as a whole holds those more often.
value kind: growth inhibition (%)
Numbers only, in %.

Solved entries (count: 4):
>  <molecule>
NC(CSC(c1ccccc1)(c1ccccc1)c1ccc(C(=O)O)cc1)C(=O)O (stereo not drawn)

>  <growth inhibition, %>
9.85

$$$$
>  <molecule>
CC(C1CCCC1=O)C1CCCC1=O (stereo not drawn)

>  <growth inhibition, %>
-10.4

$$$$
>  <molecule>
COc1cc(C2C3=C(CCCC3=O)N(c3ccc(C)cc3)C3=C2C(=O)CCC3)c([N+](=O)[O-])cc1OC

>  <growth inhibition, %>
-0.3

$$$$
>  <molecule>
Nc1c(Cl)cc(Cl)cc1C(=O)O

>  <growth inhibition, %>
-16.1

$$$$

Batch of 4 molecules: report growth inhibition for each.
1. CC(CS(C)(=O)=O)S(=O)(=O)O (stereo not drawn)
2. CN(C)c1ccc(SSc2ccc(N(C)C)cc2)cc1
3. C=CCc1cccc(CC=C)c1OCCN(CC)CC
4. O=C(Cl)C1CC=C2c3ccccc3CCC2C1C(=O)Cl (stereo not drawn)

1: -5.85; 2: 1.25; 3: 16.8; 4: -5.5

List growth inhibition for every entry below, keeping the order given.
1. COC1(C2COc3cc(OCc4ccccc4)ccc3C2=O)C=C2OCOC2=CC1=O (stereo not drawn)
2. O=C(O)c1ccc(O)c(Cl)c1
3. CC(C(=O)O)c1ccc(-n2nnc3c(=O)[nH][nH]c(=O)c32)cc1 (stereo not drawn)
4. O=C(NCCCBr)Nc1cccc2c1CCCC2

1. -4.75
2. 25.4
3. -5.7
4. -21.1
